- target under test: Luciferin 4-monooxygenase (Photinus pyralis)
- protocol summary: miR-21 counterscreen using purified firefly luciferase
- applied conditions: purified P. pyralis luciferase, luminescence; series mostly up to 57.5 µM
Results filed as inconclusive are left out. Calls of active or inactive are those of the source. Calls follow the shape of the dose curve; as a rule, active = well fitted curve in the direction sought with a large enough effect; inconclusive = small, poorly fitted or top-dose-only effect, or another doubt; inactive = no such curve, though single readings can be large or run the other way.
quantity: activity change, negative = inhibition

Below, each entry is followed by its recorded activity change, negative = inhibition result.
entry smiles	activity change, negative = inhibition
c1ccc(CSc2nnc3ccc(-c4cccs4)nn23)nc1	inactive
Cc1cc(C)n2c(SCc3ccccc3Cl)nnc2n1	inactive
NC(=O)c1ccccc1NC(=O)c1ccc(-c2ccc(Br)cc2)o1	inactive
CC(C)S(=O)(=O)c1oc(-c2ccc(F)cc2)nc1S(=O)(=O)c1ccc(F)cc1	inactive
Cc1ccc(C(=O)Nc2ccc3c(c2)N(C)C(=O)c2ccccc2S3)cc1	inactive

Exercise: Item under review: Cc1cc(C)cc(NC(=O)CSc2nnc(CNC(=O)c3ccco3)o2)c1 . Reported activity change, negative = inhibition?
Solution: inactive

Exercise: Item under review: Cc1nnc(SCc2nc(N)nc(Nc3ccccc3)n2)s1 . Reported activity change, negative = inhibition?
Solution: inactive

Exercise: Item under review: O=C(CSc1nnc(-c2cccnc2)o1)Nc1cccc(Cl)c1 . Reported activity change, negative = inhibition?
Solution: inactive

Exercise: Item under review: Cc1cc(C)cc(NC(=O)CSc2nnc(-c3ccccc3C)o2)c1 . Reported activity change, negative = inhibition?
Solution: inactive

Exercise: Item under review: CCCCN1C(C(=O)c2ccccc2)=C(OC(C)=O)c2ccccc2S1(=O)=O . Reported activity change, negative = inhibition?
Solution: inactive

Exercise: Item under review: CCS(=O)(=O)n1nc(-c2ccccc2)nc1NCc1ccco1 . Reported activity change, negative = inhibition?
Solution: inactive
